assay: yeast display, Sf9 membrane polyspecificity reagent, FACS + sequencing; frameworks hold sequencing errors

entry_sequence | polyreactivity (PSR sort gate)
QVQLVESGGGLVQAGGSLRLSCAASGRIFGINAMGWYRQAPGKERELVAAISWRSGSTYYADSVKGRFTISRDNAKNTVYLQMNSLKPEDTAVYYCAAKQDQDYYWGQGTQVTVSS | low polyreactivity
QVQLVESGGGLVQAGGSLRLSCAASGSTFIPNTMGWYRQAPGKERELVAAISRRGGSTNYADSVKGRFTISRDNAKNTVYLQMNSLKPEDTAVYYCAAVSPRRYRYDYWGQGTQVTVSS | high polyreactivity
QVQLVESGGGLVQAGGSLRLSCAASGRTFRYYAMGWYRQAPGTERELVATITGSGGSTYYADSVKGRFTISRDNAKNSVYLQMNSLKPEDTAVYYCNARKVRYPYRWYDYWGQGTQVTVSS | high polyreactivity
QVQLVESGGGLVQAGGSLRLSCAASGFTFYKYAIGWYRQAPGKERELVAGIRRGGTNYADSVKGRFTISRDNAKNTVFLQMNSLKPEDTAVYYCAADVRPYYSAYRGRYYYWGQGTQVTVSS | high polyreactivity
QVQLVESGGGVVQAGGSLRLSCAASGSIFPENARGWYRQAPGKERELVAAITSSDSSTYYADSVKGRFTISRDNAKNTVYLQMNSLKPEDTAVYYCAAYRVGFRFREYYWGLGTQVTVSS | low polyreactivity

====

assay: yeast display, Sf9 membrane polyspecificity reagent, FACS + sequencing; frameworks hold sequencing errors
result_type: polyreactivity (PSR sort gate)

entry_sequence | result_type | meas_value
QVQLVESGGGLVQAGGSLRLSCAASGFTFRKYAMGWYRQAPGKERELVASITSGGSTYYADSVKGRFTISRDNAKNTVYLQMNSLKPEDTAVYYCNAVKATLASGRLRGAYYYWGQGTQVTVSS | polyreactivity (PSR sort gate) | high polyreactivity
QVQLVESGGGLDQAGGSLRLSCAASGRIFFAYAMGWYRQAPGKEREFVAAISDNDGSTFYADSVKGRFTISRDNAKNPVYLQMNSLKPEDTAVYYCNADLGYVYDYWGQGTQVTVSS | polyreactivity (PSR sort gate) | low polyreactivity
QVQLVESGGGLVQAGGSLRLSCAASGLTFRWYAMGWYRQAPGKERELVAAISSTGRTNYADSVKGRFTISRDNAKNTVYLQMNSLKPEDTAVYYCNKTQEFVHKYELDYWGQGTQVTVSS | polyreactivity (PSR sort gate) | low polyreactivity
QFHLVDSGGGLVQAGGRLRLSCPASGGICYQYAMGWYRQAPGKEREFVAAISRRGGSTYYADSVKGRFTISRDNAKNTVYLQMNSLKPEDTAVYYCAAAPSTRGGYQQMDSWGQGTQVTVSS | polyreactivity (PSR sort gate) | high polyreactivity
QVQLVESGGGLVQAGGSLRLSCAASGSTFLHYAMGWYRQAPGKERELVAAISFSGVRTYYADSVKGRFTISRDNAKNTVYLQLNSLKPEDNAVYYCDADGHHADYDYLGQGTQVTVSS | polyreactivity (PSR sort gate) | low polyreactivity
QVQLVESGGGLVQAGGSLRLSCAASGRTFGVYVMGWYIQAPGKERELVAVITISGGSTYYADSVKGRFTISRDNAKNTVYLQMNSLKPEDTAVYYCAARTYYGYDYWGQGTQVTVSS | polyreactivity (PSR sort gate) | high polyreactivity
QVQLLESGGGLVQAGGSLRLSCAASGSTFTKYDMGWYRQAPGKERELVAAIRSGGDTNYADSVKGRFTISLDNAKNTVYLQMNSLNPEDTAVYYLAAARGPTNHTSYPWYEYDYWGQCTQVTVSS | polyreactivity (PSR sort gate) | low polyreactivity
QVQLVESGGGLVQAGGSLRLSCAASGSIFPWYAMGWYRQAPGKERELVAAITISGGSTHYADSVKGRFTISRDNAKNTVYLQMNRLKPEDTAVYYCATPRYPSYDYWGQGTQVTVSS | polyreactivity (PSR sort gate) | low polyreactivity
QVQLVESGGGLVQAGGSLRLSCAASGITINYYAMGWYRQAPGKERELVATIRSGGGTYYADSVKGRFTISRDNAKNTVYLQMNSLKTEDTAVYYCASYTYPYYRYDYWGQGTQVTVSS | polyreactivity (PSR sort gate) | high polyreactivity
QVQLVESGGGLVQAGGSLRLSCAASGRTFYPYAMGWYRQAPGKERELVAAIRRSDGSTYYADSVKGRFTISRDNAKNTVYLQMNSLKPEDTAVYYFAAGQGSRNQYYYWGHGTQVTVSS | polyreactivity (PSR sort gate) | high polyreactivity
HVQLVESGGGLVQAGGSLRLSCAASGSIFEYYAMGWYRQAPGKERELVASISRGTSTNYADSVKGRFTISRDNAKNTVYLQMNSLKPEDTAVYYCNADGWTVVLDTYGSWGQGTQVTVSS | polyreactivity (PSR sort gate) | low polyreactivity
QVQLVESGGGLVQAGGSLRLSCAASGSTFYYMGWSRQAPGKERELVAAITQSGGSTYYADSVKGRFTISRDNAKNTVYLQMNSLKPEDTAVYYCAARYASPRYKSKMDYWGQGTQVTVSS | polyreactivity (PSR sort gate) | high polyreactivity
QVQLQESGGGLVQAGGSLRMSCAASGSIFYVYGMGWYRQAPGKERELVAGINAGTNTNYADSVRGRFTISRDNAKNTVHLQMKSLKPEDTAVYYCAADGNGYQADEYWGQGTQVTVSS | polyreactivity (PSR sort gate) | high polyreactivity
QVHHLESRGGLVQEGGSLPISCGASGSTFLRYALGWYRQAPGKVRELVADITTSGGITYYADSVKGRFTISRDNAKYTVYLQLNSLKPEDTAVYDCDYWGQGTQVTVSS | polyreactivity (PSR sort gate) | low polyreactivity
QVQLVESGGGLVQAGGSLRLSCAASGRIFVQNAMGWYRQAPGKERELVAAISISGARTYYADSVKGRFTISRDNAKNSDYLQMNRLKPEDTAVYYCNASYRDEDDYWGQGTQVTVSS | polyreactivity (PSR sort gate) | high polyreactivity
QVQLVESGGCLVQAGGSLRLSCAASRFTFTYYAMGWYRHAPGKESELVAAITRRGGRTYYAYSVKGRFTISRDNAKNTVYLQMNSLKPEDTAVYYCNADEYGGSTGRKGRYNYWGQGTQVTVSS | polyreactivity (PSR sort gate) | low polyreactivity
QVQLVESGGGLVQAGGSLRLSCAASGYTFRRYAMGWYRQAPGKERELVAAINYSGGSTYYADSVKGRFTISRDNSKNTVYLQMNSLKPEDTAVYYCAARVPSPYVATYYYWGQGTQVTVSS | polyreactivity (PSR sort gate) | high polyreactivity
PVQLVESGGGLVEAGGSLLLSCAASGSTFREYTMGWYRQAPGKERELVAAITNSGGSTYYADSVKGRFTISRDIAKYTVYLQMNSLKPDDTSVYYFAAEVGIVDYDYWGQGTKVTVSS | polyreactivity (PSR sort gate) | low polyreactivity
QVQLVESGGGLVQAGGSLRLSCAASGITFSQYAMGWYRPAPGKERELVAAISWSGVRTYYADSVKGRFTISRDNSKNTVYLQMNSLKPEDTAVYYCAAVPVYYGYDYWGQGTQVTVSS | polyreactivity (PSR sort gate) | high polyreactivity
QVQLVESGGGLVQAGGSLRLSCAASGRTFSSYAMGWYRQAPGKERELVAAITRTGGRTYYAYSVKGRFTISRDNAKNSVYLQMNSLKPEDTAVYFCAALYIYRTFAALSRYDYWGQGTQVTVSS | polyreactivity (PSR sort gate) | high polyreactivity
QVHLVESGGGLVQAGGSLRLSCAASGSTFQRYAMGWDRQAPGKERELDAAITIRGTRTYYADSVKGRFTISRDNAKNTVYLQMNSLKPEDTAVYYCAATYYWYGHPSRRYDYWGQGTQVTVSS | polyreactivity (PSR sort gate) | high polyreactivity

====

test: yeast display, Sf9 membrane polyspecificity reagent, FACS + sequencing; frameworks hold sequencing errors

entry_sequence | polyreactivity (PSR sort gate)
QVQLVESGGGLVQAGGSLRLSCAASGSIFQGYAMGWYRQAPGKERELVARITSDDDSTYYADSVKGRFTISRDNAKITVYLQMNSLKPEDTAVYYCNADYYWTSLAMDSWGQGTKVTVSS | low polyreactivity
QVQLVESGGGLVQAGGSLRLSCAASGRTFIYNAMGWYRQAPGKERELVAAISTSGGRTYYADSVKGRFTISRDNAKNTVYLQMNSLKPEDTAVYYCNAVRSYRMDYWGQGTQVTVSS | high polyreactivity
QVQLVESGGGLVQAGGSLRLTCAASGSTFSGYAMGWYRQAPGKERELVATISGGGSTYYADSVKGRFTISRDNAKNTVYLQMNILKPEDTAVYYCNAQGYGIFTSSLDYWGQGTQVTVSS | low polyreactivity
QVQLVESGGGLVQAGGSLRLSCAASGRIFPIYAMGWYRQAPGKERELVATIRYSSGTTYYADSVKGRFTISRDNAKNTVYLQMNSLKPEDTAVYYCAADSQWAYISEYDYWGQGTQVTVSS | low polyreactivity
QVQLVESGGGLVQAGGSLRLSCAASGLTFSFNAMGWYRQAPGKEREFVAAISWSGGSTYYADSVKGRFTISRDNAKITVYLQMNSLKPEDTAVYYCAAESRITRYRHTRYYYWGQGTQVTVSS | high polyreactivity
